Measured EC50 accompanies every entry in the list below.
- Test system: HeLa
- test-protocol: Activation of MMTV in HeLa cells measured by luciferase activity
- Type: functional, cell-based
- measurement-context: Homo sapiens

# molecule, result-type, result
records = [
    ("COc1ccc(F)cc1C(C)(C)CC(O)(Cn1ccc(=O)c2cnccc21)C(F)(F)F (stereo unspecified)", "EC50", "> 2000 nM"),
    ("C[C@]12C=CC(=O)C=C1CC[C@@H]1[C@@H]2[C@@H](O)C[C@@]2(C)[C@H]1CC[C@]2(O)C(=O)CO", "EC50", "16 nM"),
]

Please indicate EC50 recorded for C[C@@H]1C[C@H]2[C@@H]3CCC4=CC(=O)C=C[C@]4(C)[C@@]3(F)[C@@H](O)C[C@]2(C)[C@@]1(O)C(=O)CO
17 nM

Answer with reported EC50 of COc1ccc(F)cc1C(C)(C)CC(O)(Cn1cc(C)c(=O)c(C)c1)C(F)(F)F (stereo unspecified)
> 2000 nM

Give the reported value of EC50 for this record: Cc1noc(=O)c2ccc(NC(=O)C(O)(CC(C)(C)c3cccc4c3OCC4)C(F)(F)F)cc12 (stereo unspecified)
> 2000 nM

In one line, give reported EC50 of the entry COc1ccc(C)c(C(C)(C)CC(O)(Cn2ccc(=O)c3ccccc32)C(F)(F)F)c1 (stereo unspecified) .
> 2000 nM

Please report the measured EC50 for Cc1ccc(F)cc1C(C)(C)CC(O)(Cn1ccc(=O)c2ccccc21)C(F)(F)F (stereo unspecified)
> 2000 nM

Supply recorded EC50 for COc1ccc(F)cc1C(C)(C)CC(O)(Cn1ccc(=O)c2ccccc21)C(F)(F)F (stereo unspecified) here.
> 2000 nM

Given the molecule CC(C)(CC(O)(Cn1ccc(=O)c2ccccc21)C(F)(F)F)c1ccc(F)cc1O (stereo unspecified) , write its reported EC50.
15 nM

Identify the reported EC50 for the following entry. CC(C)(CC(O)(Cn1ccc(=O)c2ccccc21)C(F)(F)F)c1cc(F)ccc1O (stereo unspecified)
37 nM

Please look at this molecule and report its EC50: Cc1ccccc1C(C)(C)CC(O)(Cn1ccc(=O)c2ccccc21)C(F)(F)F (stereo unspecified)
> 2000 nM
